Measured GI50 of individual entries
system: Malme-3M; experiment: NCI tumour cell line growth inhibition, 48 h
The source made the active and inactive calls. Rule as the data show it: active = GI50 up to about 1.1 µM and inactive = higher.

Solved entries (count: 4):
C=C1C(=O)OC2C1C(OC(=O)/C(C)=C/C)CC(O)(CCl)C1C(O)C=C(C)C21O (stereo not given): 2.22 µM (inactive)
Oc1nc(-c2ccc3ccccc3c2)nc2ccccc12: 33.6 µM (inactive)
O=C1CCCC[C@H]1[C@H]1CCC[C@@H]([C@H]2CCCCC2=O)C1=O: > 100 µM (inactive)
COc1ccc(C2=C(N)c3c(Cl)cccc3C2=O)cc1: > 100 µM (inactive)

// fetch GI50 given entry CCOC(=O)c1c(-c2cccc(Cl)c2)c(C(=O)OC)c(C)c2sc(C=O)nc12 19.3 µM (inactive)

----------
test system: BT-549; assay: NCI tumour cell line growth inhibition, 48 h
Active and inactive are the calls of the source. No stated cut-off is given here; in the data, active = GI50 up to about 1.1 µM and inactive = higher.
Observation type: GI50

Example entries begin here.
CN(C)Cc1ccc(C(C)(C)C)cc1-c1cc(C(C)(C)C)ccc1CN(C)C: > 100 µM (inactive)
N#CC(C(=O)O)C(c1c(Cl)cccc1Cl)C(C#N)C(=O)O (stereo unspecified): > 100 µM (inactive)
COc1ccc(C2=C(N)c3c(Cl)cccc3C2=O)cc1: > 100 µM (inactive)
CCCNC(C#N)c1ccc(C(C#N)NCCC)cc1 (stereo unspecified): > 100 µM (inactive)
CCOC(=O)C(C/C=C/CO)N(C)C(=O)OC(C)(C)C (stereo unspecified): > 100 µM (inactive)
Cc1ccc2c(O)cc(-c3sccc3C)nc2n1: 4.27 µM (inactive)

Please find the next molecule below.
Return GI50 for the following molecule: COc1ccc(N2C(=O)C(Cl)C2c2cc3cc(Br)ccc3nc2Cl)cc1 (stereo unspecified) 4.46 µM (inactive)

----------
test system: MOLT-4; assay: NCI tumour cell line growth inhibition, 48 h
Activity calls are given as the source filed them. Rule as the data show it: active = GI50 up to about 1.1 µM and inactive = higher.
In this exercise, the only acceptable responses are class 1 = active, class 0 = inactive

What was the test verdict on O=C1C(=C2CCCC2)CCC1CN1CCCCC1 (stereo not given) ? class 0

----------
The following molecules are listed with their measured GI50 values.
test system: HL-60; experiment: NCI tumour cell line growth inhibition, 48 h
Activity calls are given as the source filed them. Cut-off read from the data, not from the text of the source: active = GI50 up to about 1.1 µM and inactive = higher.

Fill in reported GI50 for this entry: CC1=C(C2=C(C)C(=O)c3c(c(C=O)c(O)c(O)c3C(C)C)C2=O)C(=O)c2c(C=O)c(O)c(O)c(C(C)C)c2C1=O 2.99 µM (inactive)

Item C[C@]12CC[C@H](OC3OC(CO)C(O)C(O)C3O)C[C@H]1CC[C@@H]1[C@@H]2CC[C@]2(C)[C@@H](C3=CCOC3=O)CC[C@]12O (stereo partly drawn) : provide GI50 4.51 µM (inactive)

// fetch GI50 given entry COC(=O)C1=Cc2c(OC)cc(OC)c(OC)c2[C@H](c2cc(OC)c(OC)cc2OC)C1C(=O)OC (stereo partly drawn) 28.8 µM (inactive)

Identify measured GI50 corresponding to O=C1O/C(=C/c2ccccc2)C(c2ccccc2)=C1O 20.1 µM (inactive)

Indicate its recorded GI50; the molecule in question is CCOC(=O)c1sc2nc(SC)nc3c2c1NC(=O)CN3c1cccc(F)c1 0.491 µM (active)

Given the molecule CCCCCCCCCCCCOCCCOP(=O)([O-])OCC[N+](C)(C)C , write its reported GI50. 7.21 µM (inactive)

Dear colleague, please send me the reported GI50 for CCN1c2ccccc2-c2c3c1cc(C)cc3c1ccccc1[n+]2CC when you can. 1.16 µM (inactive)

Answer with reported GI50 of COc1ccc(C2=C(N)c3c(Cl)cccc3C2=O)cc1 > 100 µM (inactive)

Determine its reported GI50: C/C=C/C=C\C=C/C(O)C(C)C(CCC(C)C1OC(=O)C=CC1C)OP(=O)(O)O (stereo not drawn) 0.0425 µM (active)

Consider the molecule CC1(C)N=C(N)N=C(N)N1c1ccc(CCc2ccccc2)cc1 . State its measured GI50. 13.3 µM (inactive)

Look up and state reported GI50 for COc1cc(C2C3=C(N=C4SC(C(C)=O)=C(C)N42)c2ccccc2CC3)cc(OC)c1OC (stereo not drawn) 30.8 µM (inactive)

Report measured GI50; entry is O=S(=O)(O)c1ccc2cc(/N=N\c3cc(S(=O)(=O)O)c4cccnc4c3O)ccc2c1 1.61 µM (inactive)

Return the recorded GI50 value; entry: CCCCCCCCCCCCCCCCCCNc1ccn(C2OC(COP(=O)(O)OCC3OC(n4ccc(N)nc4=O)C(O)C3O)C(O)C2O)c(=O)n1 (stereo not drawn) 10.2 µM (inactive)

Query GI50 for COc1ccc(N(CC(=O)O)S(=O)(=O)c2ccccc2)cc1 > 100 µM (inactive)

Tell me GI50 reported for CCOC(=O)C(NC(C)=O)(Nc1ccc(S(N)(=O)=O)cc1)C(F)(F)F (stereo not drawn) > 100 µM (inactive)

----------
tested on: U-251; assay: NCI tumour cell line growth inhibition, 48 h
Active and inactive are the calls of the source. Cut-off read from the data, not from the text of the source: active = GI50 up to about 1.1 µM and inactive = higher.
Observation type: GI50

Solved entries (count: 5):
Sc1ccccc1S: > 100 µM (inactive)
COc1cc(C(=O)C2CC3(CCC2(O)c2cc(OC)c(OC)c(OC)c2)CC(=O)Nc2ccccc2C3=O)cc(OC)c1OC (stereo unspecified): > 100 µM (inactive)
CCOC(=O)C1(C#N)C(c2ccccc2)CC(O)(c2ccc(Cl)cc2)C(C(=O)c2ccc(Cl)cc2)C1c1ccccc1 (stereo unspecified): > 10 µM (inactive)
CCCCCCCCCCCCCCCCCc1nc(Cl)nc(Cl)c1Cl: > 100 µM (inactive)
COc1ccc(C(=O)C(C(=O)C(=O)NC2C3CC4CC(C3)CC2C4)c2ccc(OC)cc2)cc1 (stereo unspecified): > 100 µM (inactive)

Provide GI50 value for the following compound: NC(=O)c1cc([N+](=O)[O-])cc([N+](=O)[O-])c1 [NITROMIDE] > 100 µM (inactive)

Give the reported GI50 for this compound. C/C(=N\NC(N)=S)C(CN(CC(C)C)CC(C)C)C(=O)Nc1ccc(C)cc1C (stereo unspecified) > 100 µM (inactive)

Supply recorded GI50 for Clc1cc2ns[s+]c2cc1Cl here. > 100 µM (inactive)

Give GI50 for O=C1C(Cl)C(c2ccccc2Cl)N1n1cnc2ccccc2c1=O (stereo unspecified) 48.4 µM (inactive)

Determine from records and report GI50 for C/C(Cl)=N\OC(=O)Nc1ccc(C)cc1 16.3 µM (inactive)

----------
test system: MDA-MB-231; test: NCI tumour cell line growth inhibition, 48 h
Active and inactive are the calls of the source. No stated cut-off is given here; in the data, active = GI50 up to about 1.1 µM and inactive = higher.
Observation type: GI50

O=[N+]([O-])c1ccc(Sc2c3ccccc3nc3ccccc23)cn1: 18 µM (inactive)
CCOc1ccc(N/C(=C(/C(Cl)=C(/Cl)Nc2ccccc2)[N+](=O)[O-])n2nnc3ccccc32)cc1: 24.5 µM (inactive)
CN(C)/N=N/c1ccc(NC=O)cc1: > 100 µM (inactive)
O=C(N/C(=C/c1ccc(Cl)cc1)c1nc2ccccc2c(=O)n1Nc1ccc([N+](=O)[O-])cc1[N+](=O)[O-])c1ccccc1: > 100 µM (inactive)
C/C=C/C[C@@H](C)C(=O)C1C(=O)N[C@@H](C(C)C)C(=O)N(C)CC(=O)N(C)[C@@H](CC(C)C)C(=O)N[C@@H](C(C)C)C(=O)N(C)[C@@H](CC(C)C)C(=O)N[C@@H](C)C(=O)N[C@@H](C)C(=O)N(C)[C@@H](CC(C)C)C(=O)N(C)[C@@H](CC(C)C)C(=O)N(C)[C@@H](C(C)C)C(=O)N1C (some centres undefined): 6.17 µM (inactive)

Tell me its GI50 given Clc1ccc(/C=N/C23CC4CC(CC(C4)C2)C3)c(Cl)c1 as the entry. > 10 µM (inactive)

Supply recorded GI50 for NCC(=O)N[C@H]1c2ccsc2/C(=N/O)[C@H]1O here. > 100 µM (inactive)

Please look at this compound and report its GI50: CCCCCCCCCCCCCCCCOCC(Cl)COP(=O)(O)OP(=O)(O)OCC1OC(n2cnc3c(N)ncnc32)C(O)C1O (centres undefined) 38.7 µM (inactive)

----------
tested on: M19-MEL; test: NCI tumour cell line growth inhibition, 48 h
Activity calls are given as the source filed them. Cut-off read from the data, not from the text of the source: active = GI50 up to about 1.1 µM and inactive = higher.
Observation type: GI50

Use these answered entries as a reference point.
COC(=O)C1Cc2c([nH]c3ccccc23)C=N1 (stereo not drawn): 74.8 µM (inactive)
O=C(NCCCl)O/N=C/c1cccnc1: > 100 µM (inactive)
CC(CN1CCN(CC(C)Nc2ccnc3cc(Cl)ccc23)CC1)Nc1ccnc2cc(Cl)ccc12 (stereo not drawn): 21.8 µM (inactive)
C/C(=N\NC(N)=S)C(CN(CC(C)C)CC(C)C)C(=O)Nc1ccc(C)cc1C (stereo not drawn): > 100 µM (inactive)
O=C(O)C(Cc1cccs1)NC(=O)C(F)(F)F (stereo not drawn): > 100 µM (inactive)

Supply GI50 measured with M19-MEL for COc1cc(C(=C2SCCS2)c2nccc3cc(OC)c(OC)cc23)c([N+](=O)[O-])cc1OC . 72.9 µM (inactive)

Tell me its GI50 on M19-MEL: C[C@]12CC[C@H](OC3OC(CO)C(O)C(O)C3O)C[C@H]1CC[C@@H]1[C@@H]2CC[C@]2(C)[C@@H](C3=CCOC3=O)CC[C@]12O (stereo partly drawn) 11.7 µM (inactive)

Report measured GI50 on M19-MEL; entry: S=c1nc(N2CCCCC2)ss1 18.2 µM (inactive)

Lab note: M19-MEL assay, enter GI50 for COc1ccc(N2C(=O)[C@@H]3[C@H](C2=O)c2[nH]c4ccccc4c2C2CCC(C(C)(C)C)C[C@@H]23)cc1 (stereo partly drawn) here 46.9 µM (inactive)

Provide measured GI50 on M19-MEL for Cc1cc2c(C(C)C)c(O)c(O)c(C=O)c2c(O)c1-c1c(C)cc2c(C(C)C)c(O)c(O)c(C=O)c2c1O please. 3.34 µM (inactive)

Recall the reported GI50 of O=C1c2ccccc2C(O)(C(=O)O)C1(O)CC=C(Cl)Cl (stereo not drawn) when tested on M19-MEL. > 125 µM (inactive)

Consider the compound O=C1CCCC[C@H]1[C@H]1CCC[C@@H]([C@H]2CCCCC2=O)C1=O tested on M19-MEL; state its GI50. > 100 µM (inactive)

Write GI50 of OCC1OC(n2cnc3c2NC=NC[C@H]3O)C(O)C1O (stereo partly drawn) ; system used: M19-MEL > 450 µM (inactive)
